B1: OR10K2 (parent)
chain: SLARLQQLLFVIFLLLYLFTLGTN

Variants of: B1
Test: protein stability index of a GFP-peptide fusion (GPS, HEK-293T) (PSI 1-6); higher = more stable;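 note: lentivirally expressed fusions sorted by FACS into six bins by GFP to DsRed ratio, PSI derived from sequencing read proportions per bin multiplied by bin number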
Settings: c terminus: a fixed tail appended
QUANTITY MEASURED: protein stability index
// no unit, no text: just the number

Look over these answered cases.
{"BIOSEQUENCE": "SLARLQQLLIVIFLLLYLFTLGTN [F10I]", "protein stability index": 4.24}
{"BIOSEQUENCE": "SLAELQQLLFVIFLLLYLFTLGTN [R4E]", "protein stability index": 3.95}
{"BIOSEQUENCE": "SLARLQQLLFVIFLLLYLFTLGSN [T23S]", "protein stability index": 1.86}

Answer with the recorded protein stability index of SLARLQQLLFHIFLLLYLFTLGTN [V11H] only.
2.61

Determine its reported protein stability index: SLARLQQLLFVIFLLLYSFTLGTN [L18S]
2.25

Source of measurements: the supplement of paper PMC10567573
